system: HCV replicon, genotype-1a variant with glutamine 30 changed to glutamate in the NS5A protein; assay: microbe, parasite or virus in culture; format: cell-based, HCV genotype 1a; details: HCV replicon genotype 1a Q30E (Q→E) variant; test compound titrated with an NS5A-targeting compound (BMS-790052 fixed at 200 nM); ranking of synergist activity
Would you kindly list Fold-Synergistic 1a (Q30E) for each of these compounds?

Please review the entries below; each comes with its answer.
>  <compound>
COC(=O)N1CCC(F)(F)C[C@H]1C(=O)N[C@H](c1nc(-c2ccc(-c3ccc(-c4c[nH]c([C@@H](NC(=O)[C@@H]5CC(F)(F)CCN5C(=O)OC)C(C)(C)C)n4)cc3)cc2)c[nH]1)C(C)(C)C [Compound L-43]

>  <Fold-Synergistic 1a (Q30E)>
>100 fold

$$$$
>  <compound>
COC(=O)C1(C(=O)N[C@H](c2nc(-c3ccc(-c4ccc(-c5c[nH]c([C@@H](NC(=O)C6(C(=O)OC)CCCCC6)C(C)(C)C)n5)cc4)cc3)c[nH]2)C(C)(C)C)CCCCC1 [Compound S-273]

>  <Fold-Synergistic 1a (Q30E)>
>100 fold

$$$$
>  <compound>
CC(C)(C)[C@H](NC(=O)C(=O)N1CC(F)(F)C1)c1nc(-c2ccc(-c3ccc(-c4c[nH]c([C@@H](NC(=O)C(=O)N5CC(F)(F)C5)C(C)(C)C)n4)cc3)cc2)c[nH]1 [Compound W-28]

>  <Fold-Synergistic 1a (Q30E)>
>100 fold

$$$$
>  <compound>
CC(C)(C)[C@H](NC(=O)[C@@H]1CCCO1)c1nc(-c2ccc(-c3ccc(-c4c[nH]c([C@@H](NC(=O)[C@@H]5CCCO5)C(C)(C)C)n4)cc3)cc2)c[nH]1 [Compound L-65]

>  <Fold-Synergistic 1a (Q30E)>
>100 fold

$$$$
>  <compound>
CC1([C@H](NC(=O)C2(C3(O)CCC(F)(F)CC3)CC2)c2nc(-c3ccc(-c4ccc(-c5c[nH]c([C@@H](NC(=O)C6(C7(O)CCC(F)(F)CC7)CC6)C6(C)CC6)n5)cc4)cc3)c[nH]2)CC1 [Compound P-147]

>  <Fold-Synergistic 1a (Q30E)>
>100 fold

$$$$

// for each compound in input: emit Fold-Synergistic 1a (Q30E)
1. CC(CF)(CF)OC(=O)NC1(C(=O)N[C@H](c2nc(-c3ccc(-c4ccc(-c5c[nH]c([C@@H](NC(=O)C6(NC(=O)OC(C)(CF)CF)CC6)C(C)(C)C)n5)cc4)cc3)c[nH]2)C(C)(C)C)CC1 [Compound L-27]
2. CC(C)(C)OC(=O)N1CCCC[C@@H]1C(=O)N[C@H](c1nc(-c2ccc(-c3ccc(-c4c[nH]c([C@@H](NC(=O)[C@H]5CCCCN5C(=O)OC(C)(C)C)C(C)(C)C)n4)cc3)cc2)c[nH]1)C(C)(C)C [Compound L-16]
3. CO[C@H]1C[C@@H](C(=O)N[C@H](c2nc(-c3ccc(-c4ccc(-c5c[nH]c([C@@H](NC(=O)[C@@H]6C[C@H](OC)CN6C(=O)OC(C)(C)C)C(C)(C)C)n5)cc4)cc3)c[nH]2)C(C)(C)C)N(C(=O)OC(C)(C)C)C1 [Compound W-115]

[">100 fold", ">100 fold", ">100 fold"]

// for each compound in input: emit Fold-Synergistic 1a (Q30E)
1. CC(C)[C@H](O)C(=O)N[C@H](c1nc(-c2ccc(-c3ccc(-c4c[nH]c([C@@H](NC(=O)[C@@H](O)C(C)C)C(C)(C)C)n4)cc3)cc2)c[nH]1)C(C)(C)C [Compound L-78]
2. CCN(CCC#N)C(=O)C(C)(C)C(=O)N[C@H](c1nc(-c2ccc(-c3ccc(-c4c[nH]c([C@@H](NC(=O)C(C)(C)C(=O)N(CC)CCC#N)C(C)(C)C)n4)cc3)cc2)c[nH]1)C(C)(C)C [Compound W-158]
3. CCN(CC(F)(F)F)C(=O)C(=O)N[C@H](c1nc(-c2ccc(-c3ccc(-c4c[nH]c([C@@H](NC(=O)C(=O)N(CC)CC(F)(F)F)C5CC5)n4)cc3)cc2)c[nH]1)C1CC1 [Compound L-35]

1. >100 fold
2. >100 fold
3. >100 fold

// for each compound in input: emit Fold-Synergistic 1a (Q30E)
1. Cc1cn(CCC(=O)N2CCC[C@H]2c2ncc(-c3ccc(-c4ccc(-c5cnc([C@@H]6CCCN6C(=O)CCn6cc(C)c7ccccc76)[nH]5)cc4)cc3)[nH]2)c2ccccc12 [Compound S-153]
2. O=C(c1ccccc1Oc1ccccc1)N1CCC[C@H]1c1ncc(-c2ccc(-c3ccc(-c4cnc([C@@H]5CCCN5C(=O)c5ccccc5Oc5ccccc5)[nH]4)cc3)cc2)[nH]1 [Compound S-114]
3. COC(C)(C)C(=O)N[C@H](c1nc(-c2ccc(-c3ccc(-c4c[nH]c([C@@H](NC(=O)C(C)(C)OC)C(C)(C)C)n4)c(C)c3)cc2)c[nH]1)C(C)(C)C [Compound N-85]

1: >10 fold; 2: <10 fold; 3: >100 fold
